biological target: active p38 alpha enzyme (Upstate Biotechnology) (Homo sapiens, UniProt Q16539); construct: purchased Upstate Biotechnology; test: p38α biochemical assay (ATP turnover, luminescent detection, Cambrex PKlight); conditions: p38α biochemical assay, Table 1 Biological Activity
Sequence (Q16539 whole entry): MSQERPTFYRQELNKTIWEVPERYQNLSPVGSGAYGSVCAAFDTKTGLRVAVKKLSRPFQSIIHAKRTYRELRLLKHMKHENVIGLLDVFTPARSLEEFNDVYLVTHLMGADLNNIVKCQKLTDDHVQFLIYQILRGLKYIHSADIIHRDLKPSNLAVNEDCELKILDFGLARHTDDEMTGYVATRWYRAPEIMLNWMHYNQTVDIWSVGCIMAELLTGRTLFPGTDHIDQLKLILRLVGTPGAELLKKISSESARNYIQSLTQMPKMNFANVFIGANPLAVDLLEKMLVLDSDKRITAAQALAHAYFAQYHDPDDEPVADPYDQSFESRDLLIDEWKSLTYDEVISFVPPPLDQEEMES
pIC50: −log10 of the molar value.
# pIC50 listing for each entry below
MEASURED QUANTITY: pIC50

| COMPOUND | MEASURED QUANTITY | RESULT |
| --- | --- | --- |
| Cc1[nH]nc(-c2ccc(F)cc2)c1-c1nc(C(=O)NCc2ccc3c(c2)OCO3)cs1 [Example 74] | pIC50 | ≥ 6.00 |
| COc1ccc(C(=O)NCc2nc(-c3ccc(F)cc3)c(-c3nc(C(=O)NC(C)C)cs3)o2)c(OC)c1OC [Example 286] | pIC50 | < 6.00 |
| CC(C)NC(=O)c1csc(-c2c(-c3ccc(F)cc3)noc2CNC(=O)c2cncc(Br)c2)n1 [Example 752] | pIC50 | < 6.00 |
| CC(C)NC(=O)c1csc(-c2oc(CNC(=O)c3cccc(F)c3)nc2-c2ccc(F)cc2)n1 [Example 127] | pIC50 | < 6.00 |
| Cc1nc(-c2ccc(F)cc2)c(-c2nc(C(=O)NC(C)C)cs2)s1 [Example 46] | pIC50 | ≥ 6.00 |
| CC(C)NC(=O)c1csc(-c2oc(CNC(=O)c3ccc(Cl)cc3[N+](=O)[O-])nc2-c2ccc(F)cc2)n1 [Example 273] | pIC50 | ≥ 6.00 |
| CC(C)NC(=O)c1csc(-c2oc(CN3CCN(C(=O)c4ccc(Cl)c(Br)c4)CC3)nc2-c2ccc(F)cc2)n1 [Example 558] | pIC50 | < 6.00 |
| CC(C)NC(=O)c1csc(-c2oc(CNC(=O)c3ccccc3C(F)(F)F)nc2-c2ccc(F)cc2)n1 [Example 249] | pIC50 | ≥ 6.00 |
| CC(C)NC(=O)c1csc(-c2oc(CNC(=O)CCc3ccccc3Br)nc2-c2ccc(F)cc2)n1 [Example 309] | pIC50 | < 6.00 |
| CC(C)NC(=O)c1csc(-c2oc(CNC(=O)c3ccc4ncccc4c3)nc2-c2ccc(F)cc2)n1 [Example 197] | pIC50 | ≥ 6.00 |
| CC(C)NC(=O)c1csc(-c2oc(CN3CCN(C(=O)c4cccc(Oc5ccccc5)c4)CC3)nc2-c2ccc(F)cc2)n1 [Example 525] | pIC50 | < 6.00 |
| Cc1onc(-c2ccc(F)cc2)c1-c1csc(C(=O)NC(C)C)n1 [Example 34] | pIC50 | ≥ 6.00 |
| CC(C)NC(=O)c1csc(-c2oc(CNC(=O)c3cc4ccccc4o3)nc2-c2ccc(F)cc2)n1 [Example 163] | pIC50 | < 6.00 |
| CC(C)NC(=O)c1csc(-c2oc(CN3CCN(C(=O)/C=C/c4cccc(O)c4)CC3)nc2-c2ccc(F)cc2)n1 [Example 405] | pIC50 | < 6.00 |
| CC(C)NC(=O)c1csc(-c2c(-c3ccc(F)cc3)noc2CNC(=O)CCc2ccccc2O)n1 [Example 656] | pIC50 | < 6.00 |

----------
biological target: active p38 alpha enzyme (Upstate Biotechnology) (Homo sapiens, UniProt Q16539); construct: purchased Upstate Biotechnology; assay: p38α biochemical assay (ATP turnover, luminescent detection, Cambrex PKlight); conditions: p38α biochemical assay, Table 1 Biological Activity
pIC50: −log10 of the molar value.
Measured pIC50, listed per entry for reference.
MEASURED QUANTITY: pIC50

| MOLECULE | MEASURED QUANTITY | RESULT |
| --- | --- | --- |
| CC(C)NC(=O)c1csc(-c2oc(CNC(=O)c3csc4ccccc34)nc2-c2ccc(F)cc2)n1 [Example 206] | pIC50 | < 6.00 |
| CC(=O)Oc1cccc(C(=O)NCc2onc(-c3ccc(F)cc3)c2-c2nc(C(=O)NC(C)C)cs2)c1 [Example 690] | pIC50 | < 6.00 |
| CCCCCCCC(=O)NCc1nc(-c2ccc(F)cc2)c(-c2nc(C(=O)NC(C)C)cs2)o1 [Example 128] | pIC50 | ≥ 6.00 |
| CC(C)NC(=O)c1csc(-c2c(-c3ccc(F)cc3)ncn2C2CCNCC2)n1 [Example 91] | pIC50 | ≥ 6.00 |
| CC(C)NC(=O)c1csc(-c2oc(CNC(=O)c3ccc4cc(O)ccc4c3)nc2-c2ccc(F)cc2)n1 [Example 242] | pIC50 | ≥ 6.00 |
| COc1ccc2cc(C(C)C(=O)NCc3onc(-c4ccc(F)cc4)c3-c3nc(C(=O)NC(C)C)cs3)ccc2c1 (stereo not drawn) [Example 788] | pIC50 | < 6.00 |
| CC(=O)c1ccccc1C(=O)N1CCN(Cc2nc(-c3ccc(F)cc3)c(-c3nc(C(=O)NC(C)C)cs3)o2)CC1 [Example 407] | pIC50 | ≥ 6.00 |
| CC(C)NC(=O)c1csc(-c2oc(CNC(=O)c3c4ccccc4cc4ccccc34)nc2-c2ccc(F)cc2)n1 [Example 303] | pIC50 | ≥ 6.00 |
| COc1cccc(OC)c1C(=O)N1CCN(Cc2nc(-c3ccc(F)cc3)c(-c3nc(C(=O)NC(C)C)cs3)o2)CC1 [Example 463] | pIC50 | ≥ 6.00 |
| CC(C)NC(=O)c1csc(-c2c(-c3ccc(F)cc3)noc2CNC(=O)c2cc3ccccc3s2)n1 [Example 682] | pIC50 | < 6.00 |
| CC(C)NC(=O)c1csc(-c2c(-c3ccc(F)cc3)noc2CNC(=O)c2cnc[nH]2)n1 [Example 580] | pIC50 | < 6.00 |
| CC(C)NC(=O)c1csc(-c2oc(CNC(=O)c3cccc(Oc4ccccc4)c3)nc2-c2ccc(F)cc2)n1 [Example 288] | pIC50 | < 6.00 |
| Cc1ccccc1CC(=O)NCc1onc(-c2ccc(F)cc2)c1-c1nc(C(=O)NC(C)C)cs1 [Example 610] | pIC50 | < 6.00 |
| CC(C)NC(=O)c1csc(-c2c(-c3ccc(F)cc3)noc2CNC(=O)c2cc(F)c(F)c(O)c2F)n1 [Example 729] | pIC50 | < 6.00 |
| COc1cc(/C=C/C(=O)NCc2nc(-c3ccc(F)cc3)c(-c3nc(C(=O)NC(C)C)cs3)o2)ccc1O [Example 261] | pIC50 | ≥ 6.00 |

----------
biological target: active p38 alpha enzyme (Upstate Biotechnology) (Homo sapiens, UniProt Q16539); construct: purchased Upstate Biotechnology; experiment: p38α biochemical assay (ATP turnover, luminescent detection, Cambrex PKlight); conditions: p38α kinase; Table 1 Biological Activity
pIC50: −log10 of the molar value.
pIC50 values for the molecules below.
MEASURED QUANTITY: pIC50

| MOLECULE | MEASURED QUANTITY | RESULT |
| --- | --- | --- |
| CC(CO)NC(=O)c1csc(-c2c(-c3ccc(F)cc3)n[nH]c2C2CCNCC2)n1 (centres unmarked) | pIC50 | ≥ 6.00 |
| CC(C)NC(=O)c1csc(-c2c(-c3ccc(F)cc3)n[nH]c2C2CCN(C(=O)C3CN(C(=O)OC(C)(C)C)CCN3)CC2)n1 (centres unmarked) [Example 1028] | pIC50 | < 6.00 |
| CC(C)NC(=O)c1csc(-c2oc(CN3CCN(c4ccc(C#N)cn4)CC3)nc2-c2ccc(F)cc2)n1 | pIC50 | < 6.00 |
| CC(C)NC(=O)c1csc(-c2oc(CNCc3ccccc3)nc2-c2ccc(F)cc2)n1 | pIC50 | < 6.00 |
| COC[C@@H]1CCCN1C(=O)c1csc(-c2sc(C)nc2-c2ccc(F)cc2)n1 | pIC50 | ≥ 6.00 |
| CCN(CCO)Cc1onc(-c2ccc(F)cc2)c1-c1nc(C(=O)NC(C)C)cs1 | pIC50 | < 6.00 |
| O=C(NCC1CCCO1)c1csc(-c2c(-c3ccc(F)cc3)n[nH]c2C2CCNCC2)n1 (centres unmarked) | pIC50 | < 6.00 |
| Cc1nc(-c2ccc(F)cc2)c(-c2nc(C(=O)NCc3ccc(F)c(F)c3)cs2)s1 | pIC50 | ≥ 6.00 |

----------
target: active p38 alpha enzyme (Upstate Biotechnology) (Homo sapiens, UniProt Q16539); construct: purchased Upstate Biotechnology; assay: p38α biochemical assay (ATP turnover, luminescent detection, Cambrex PKlight); conditions: p38α biochemical assay, Table 1 Biological Activity
pIC50: −log10 of the molar value.
Entries and their pIC50
MEASURED QUANTITY: pIC50

| MOLECULE | RESULT |
| --- | --- |
| CCN(CC)c1ccc(C(=O)NCc2onc(-c3ccc(F)cc3)c2-c2nc(C(=O)NC(C)C)cs2)cc1 [Example 735] | < 6.00 |
| CC(C)NC(=O)c1csc(-c2c(-c3ccc(F)cc3)noc2CNC(=O)c2ccccn2)n1 [Example 589] | < 6.00 |
| CC(C)NC(=O)c1csc(-c2oc(CNC(=O)c3ccc4c(c3)OCO4)nc2-c2ccc(F)cc2)n1 [Example 177] | < 6.00 |
| CC(C)NC(=O)c1csc(-c2oc(CN3CCN(C(=O)c4cc(O)ccc4[N+](=O)[O-])CC3)nc2-c2ccc(F)cc2)n1 [Example 470] | < 6.00 |
| CC(C)NC(=O)c1csc(-c2c(-c3ccc(F)cc3)noc2CNC(=O)c2ccc3ccccc3c2O)n1 [Example 720] | < 6.00 |
| CC(C)NC(=O)c1csc(-c2oc(CN3CCN(C(=O)/C=C/c4ccccc4Cl)CC3)nc2-c2ccc(F)cc2)n1 [Example 468] | < 6.00 |
| Cc1cccc(CCC(=O)N2CCN(Cc3nc(-c4ccc(F)cc4)c(-c4nc(C(=O)NC(C)C)cs4)o3)CC2)c1 [Example 410] | ≥ 6.00 |
| CC(C)NC(=O)c1csc(-c2oc(CNC(=O)c3ccccc3)nc2-c2ccc(F)cc2)n1 [Example 111] | < 6.00 |
| CC(C)NC(=O)c1csc(-c2c(-c3ccc(F)cc3)noc2CNC(=O)CCc2nc3ccccc3[nH]2)n1 [Example 725] | < 6.00 |
| CC(C)NC(=O)c1csc(-c2c(-c3ccc(F)cc3)noc2CNCCO)n1 [Example 32] | < 6.00 |
| CC(C)NC(=O)c1csc(-c2oc(CNC(=O)/C=C/c3ccccc3F)nc2-c2ccc(F)cc2)n1 [Example 178] | ≥ 6.00 |
| CC(C)NC(=O)c1csc(-c2oc(CNC(=O)C3CCc4ccccc4C3)nc2-c2ccc(F)cc2)n1 (stereo not drawn) [Example 204] | < 6.00 |
| CC(C)NC(=O)c1csc(-c2c(-c3ccc(F)cc3)noc2CNC(=O)c2ccncc2Cl)n1 [Example 631] | ≥ 6.00 |
| CC(C)CC(=O)N1CCN(Cc2nc(-c3ccc(F)cc3)c(-c3nc(C(=O)NC(C)C)cs3)o2)CC1 [Example 341] | < 6.00 |
| CC(C)NC(=O)c1csc(-c2c(-c3ccc(F)cc3)noc2CNC(=O)C2CCc3ccccc32)n1 (stereo not drawn) [Example 639] | < 6.00 |

Data provenance is patent US20060252807A1.
